System: HepG2
Assay: Cell cycle arrest in human HepG2 cells assessed as increase in G2/M phase cells after 20 hrs by flow cytometry using propidium iodide staining
Assay type: functional, cell-based
Settings: HepG2, 20 h
pEC50: −log10 of the molar value.

[
  {
    "compound": "COc1ccc(-c2c(Cl)sc(=O)n2-c2cc(OC)c(OC)c(OC)c2)cc1N",
    "tested.target": "HepG2",
    "pEC50": "< 3.60"
  },
  {
    "compound": "COc1ccc(-c2csc(=O)n2-c2cc(OC)c(OC)c(OC)c2)cc1N",
    "tested.target": "HepG2",
    "pEC50": 5.41
  },
  {
    "compound": "COc1ccc(/C=C\\c2cc(OC)c(OC)c(OC)c2)cc1O [COMBRETASTATIN A4]",
    "tested.target": "HepG2",
    "pEC50": "> 7.52"
  }
]

---

Tested on: CCRF-CEM
Assay: Anticancer activity against human CCRF-CEM cells after 72 hrs
Type: functional, cell-based
pIC50: −log10 of the molar value.
recorded.metric: pIC50

[
  {
    "compound": "COc1ccc(/C=C\\c2cc(OC)c(OC)c(OC)c2)cc1O [COMBRETASTATIN A4]",
    "bound.operator": "=",
    "test.value": 8.70
  },
  {
    "compound": "COc1ccc(-n2c(-c3cc(OC)c(OC)c(OC)c3)c(Cl)sc2=O)cc1[N+](=O)[O-]",
    "bound.operator": "<",
    "test.value": 4.70
  },
  {
    "compound": "COc1ccc(-n2c(-c3cc(OC)c(OC)c(OC)c3)csc2=N)cc1",
    "bound.operator": "=",
    "test.value": 4.88
  },
  {
    "compound": "COc1ccc(-c2csc(=O)n2-c2cc(OC)c(OC)c(OC)c2)cc1N",
    "bound.operator": "=",
    "test.value": 6.62
  },
  {
    "compound": "COc1ccc(-n2c(-c3cc(OC)c(OC)c(OC)c3)c(Cl)sc2=O)cc1N",
    "bound.operator": "=",
    "test.value": 4.79
  },
  {
    "compound": "COc1ccc(-n2c(-c3cc(OC)c(OC)c(OC)c3)csc2=O)cc1",
    "bound.operator": "=",
    "test.value": 4.83
  },
  {
    "compound": "COc1ccc(-c2csc(=O)n2-c2cc(OC)c(OC)c(OC)c2)cc1",
    "bound.operator": "=",
    "test.value": 5.74
  },
  {
    "compound": "COc1ccc(-c2csc(=O)n2-c2cc(OC)c(OC)c(OC)c2)cc1[N+](=O)[O-]",
    "bound.operator": "=",
    "test.value": 5.09
  },
  {
    "compound": "COc1ccc(-n2c(-c3cc(OC)c(OC)c(OC)c3)csc2=O)cc1N",
    "bound.operator": "=",
    "test.value": 5.00
  },
  {
    "compound": "COc1ccc(-c2c(Cl)sc(=O)n2-c2cc(OC)c(OC)c(OC)c2)cc1",
    "bound.operator": "<",
    "test.value": 4.70
  }
]

---

System: Bel-7402
Assay: Anticancer activity against human Bel7402 cells after 72 hrs
Type: functional, cell-based
Details: Bel-7402, 72 h

[
  {
    "molecule": "COc1ccc(-c2csc(=O)n2-c2cc(OC)c(OC)c(OC)c2)cc1N",
    "IC50": "3.3 µM"
  },
  {
    "molecule": "COc1ccc(-c2c(Cl)sc(=O)n2-c2cc(OC)c(OC)c(OC)c2)cc1N",
    "IC50": "23.4 µM"
  },
  {
    "molecule": "COc1ccc(/C=C\\c2cc(OC)c(OC)c(OC)c2)cc1O [COMBRETASTATIN A4]",
    "IC50": "1.72 µM"
  }
]

---

System: CCRF-CEM
Assay: Anticancer activity against human CCRF-CEM cells after 72 hrs
Type: functional, cell-based
pIC50: −log10 of the molar value.
# label = met if pIC50 >= 6 else not met

[
  {
    "smiles.record": "COc1ccc(-n2c(-c3cc(OC)c(OC)c(OC)c3)csc2=O)cc1[N+](=O)[O-]",
    "assigned.category": "not met"
  },
  {
    "smiles.record": "COc1ccc(-n2c(-c3cc(OC)c(OC)c(OC)c3)c(Cl)sc2=O)cc1",
    "assigned.category": "not met"
  },
  {
    "smiles.record": "COc1ccc(-c2csc(=N)n2-c2ccc(OC)cc2)cc1",
    "assigned.category": "not met"
  },
  {
    "smiles.record": "COc1ccc(-c2c(Cl)sc(=O)n2-c2cc(OC)c(OC)c(OC)c2)cc1N",
    "assigned.category": "met"
  },
  {
    "smiles.record": "COc1ccc(-c2c(Cl)sc(=O)n2-c2cc(OC)c(OC)c(OC)c2)cc1[N+](=O)[O-]",
    "assigned.category": "not met"
  }
]

---

Test system: HepG2
Assay: Anticancer activity against human HepG2 cells after 72 hrs
Assay type: functional, cell-based
Conditions: HepG2, 72 h
Entries and their measured IC50 follow.

[
  {
    "smiles.record": "COc1ccc(/C=C\\c2cc(OC)c(OC)c(OC)c2)cc1O",
    "IC50 [µM]": 0.006
  },
  {
    "smiles.record": "COc1ccc(-c2csc(=O)n2-c2cc(OC)c(OC)c(OC)c2)cc1N",
    "IC50 [µM]": 4.5
  },
  {
    "smiles.record": "COc1ccc(-c2c(Cl)sc(=O)n2-c2cc(OC)c(OC)c(OC)c2)cc1N",
    "IC50 [µM]": 96
  }
]

---

Test system: HCT-116
Assay: Anticancer activity against human HCT116 cells after 72 hrs
Type: functional, cell-based
Conditions: HCT-116, 72 h
pIC50: −log10 of the molar value.
recorded.metric: pIC50

[
  {
    "compound": "COc1ccc(-c2csc(=O)n2-c2cc(OC)c(OC)c(OC)c2)cc1N",
    "recorded.metric": "pIC50",
    "test.value": 5.47
  },
  {
    "compound": "COc1ccc(/C=C\\c2cc(OC)c(OC)c(OC)c2)cc1O [COMBRETASTATIN A4]",
    "recorded.metric": "pIC50",
    "test.value": 8.22
  },
  {
    "compound": "COc1ccc(-c2c(Cl)sc(=O)n2-c2cc(OC)c(OC)c(OC)c2)cc1N",
    "recorded.metric": "pIC50",
    "test.value": 4.07
  }
]
